Taken from PubChem BioAssay AID1159580.

Listed here: items and their measured normalized growth.
measurementDescription: chemical genetic growth profiling, strain panel (AID 1159580);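 note: tested at 20 µM; growth read once vehicle control cultures reached saturation at 30 °C; 1 = growth at the plate median or of vehicle wells; lower values mean less growth of the strain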
conditionsUsed: S. cerevisiae deletion strains, growth OD, locus YPR163C, strain tif3, hits give low values
The campaign covered roughly 5,500 compounds. About 2,000 (36%) were called active. Not shown: some 18% with an inconclusive outcome. The list shows a part of the results.
Output spec: single numeric token, no unit.

These solved cases illustrate the format of a correct answer.
C[C@@H]1CC[C@H]2C(C)(C)C3CC12CC[C@@]3(C)O (some centres not stated)	0.993
CC(=O)O[C@H]1C[C@@H](OC(C)=O)C(C)(C)C2C[C@@H](OC(C)=O)[C@]3(C)C(CC[C@@]4(C)[C@H](c5ccoc5)OC(=O)[C@H]5O[C@]543)[C@]21C (some centres not stated)	1

In one line, give reported normalized growth of the entry CC(=O)O[C@H]1C[C@@H](OC(C)=O)C(C)(C)C2C[C@@H](O)[C@]3(C)C(CC[C@@]4(C)[C@H](c5ccoc5)OC(=O)[C@H]5O[C@]543)[C@]21C (some centres not stated) .
0.986

Answer with the recorded normalized growth for the compound listed here: CC(=O)O[C@@H]1CC2C(C)(C)[C@H](O)CC[C@]2(C)C2CC[C@@]3(C)[C@H](c4ccoc4)OC(=O)C4OC43[C@@]21C (some centres not stated)
0.984

Supply recorded normalized growth for O=c1oc2ccccc2cc1O here.
1

Specify reported normalized growth for the compound shown: CC(=O)OC1CC(OC(C)=O)C2(C)C(CC(OC(C)=O)C3(C)C2CCC2(C)C(c4ccoc4)OC(=O)C4OC423)C1(C)C (configuration not stated)
0.992

Return normalized growth (reported value) for this compound: CC(=O)O[C@H]1CC[C@@]2(C)C(C[C@@H](OC(C)=O)[C@]3(C)C2CC[C@@]2(C)[C@H](c4ccoc4)OC(=O)[C@H]4O[C@]423)C1(C)C (some centres not stated)
1.02
